Hello, the source for this data is patent US6506766B1, in case you need it.

biological target: human glucocorticoid receptor-α [GRX] isoform (Homo sapiens, UniProt P04150); construct: host or cells: insect SF21 cells (baculovirus); experiment: Radioligand binding with human glucocorticoid receptor cytosol ([3H]-dexamethasone competition); conditions: GRX cytosol expressed in insect SF21 cells, [3H]-Dex ~0.9 nM, 4° C. overnight; Ki by Cheng-Prusoff, KL ~[…]; read-out: Ki (nM) GR
Sequence (P04150 whole entry, canonical isoform): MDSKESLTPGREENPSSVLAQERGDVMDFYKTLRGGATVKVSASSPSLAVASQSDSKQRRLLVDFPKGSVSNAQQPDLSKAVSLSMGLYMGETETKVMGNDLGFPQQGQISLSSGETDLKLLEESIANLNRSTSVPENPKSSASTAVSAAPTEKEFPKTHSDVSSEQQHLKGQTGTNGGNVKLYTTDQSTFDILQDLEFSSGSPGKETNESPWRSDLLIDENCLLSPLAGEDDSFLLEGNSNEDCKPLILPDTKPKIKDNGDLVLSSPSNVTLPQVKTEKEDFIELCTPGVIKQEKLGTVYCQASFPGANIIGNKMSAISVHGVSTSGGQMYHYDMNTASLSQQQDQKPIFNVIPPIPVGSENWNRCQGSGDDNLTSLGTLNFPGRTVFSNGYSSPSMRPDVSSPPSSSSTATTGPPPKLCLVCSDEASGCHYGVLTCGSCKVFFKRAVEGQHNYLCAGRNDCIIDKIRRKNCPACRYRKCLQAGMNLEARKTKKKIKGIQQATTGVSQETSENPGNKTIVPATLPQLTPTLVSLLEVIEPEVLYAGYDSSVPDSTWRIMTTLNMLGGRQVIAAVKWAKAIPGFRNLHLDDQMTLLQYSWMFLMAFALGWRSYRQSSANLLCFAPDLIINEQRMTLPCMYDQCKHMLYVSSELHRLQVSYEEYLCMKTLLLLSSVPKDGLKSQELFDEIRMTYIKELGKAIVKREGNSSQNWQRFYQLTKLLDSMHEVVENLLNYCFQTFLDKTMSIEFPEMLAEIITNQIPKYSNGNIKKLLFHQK
experimental readout: Ki (nM)

CCOC(=O)NCC1Oc2cccc(OC)c2-c2ccc3c(c21)C(C)=CC(C)(C)N3 (stereo not drawn) | 22

[P] COc1cccc2c1-c1ccc3c(c1C(c1cc(C)cc(N4CCOCC4)c1)O2)C(C)=CC(C)(C)N3 (stereo not drawn)
[Q] COc1cccc2c1-c1ccc3c(c1C(c1ccncc1)O2)C(C)=CC(C)(C)N3 (stereo not drawn)
[R] COc1cccc2c1-c1ccc3c(c1[C@@H]([C@H]1C=C(CN(C)S(C)(=O)=O)CCC1)O2)C(C)=CC(C)(C)N3 (relative stereo)
[S] COc1c(O)ccc2c1-c1ccc3c(c1C(C1C=CCCC1)O2)C(C)=CC(C)(C)N3 (single isomer, unassigned; (+)) [Example 284]
Rank by Ki (largest to smallest). // ordering of labels required in reply
S, P, Q, R
(S: 110 nM, P: 39 nM, Q: 20 nM, R: 2.5 nM)

[a] COc1cccc2c1-c1ccc3c(c1C(/C=C/c1ccccc1)O2)C(C)=CC(C)(C)N3 (stereo not drawn)
[b] COc1cccc2c1-c1ccc3c(c1C(CC(O)CO)O2)C(C)=CC(C)(C)N3 (mixture of isomers)
// returns a or b , whichever has the lower Ki Choose, then provide that item's label.
a
(a: 44 nM, b: 270 nM)

[1] CCC1=C[C@@H]([C@H]2Oc3ccc(O)c(OC)c3-c3ccc4c(c32)C(C)=CC(C)(C)N4)CCC1
[2] C#Cc1cccc2c1-c1ccc3c(c1C(CC=C)O2)C(C)=CC(C)(C)N3 (stereo not drawn)
[3] COc1cccc2c1-c1ccc3c(c1C(C#N)O2)C(C)=CC(C)(C)N3 (stereo not drawn)
[4] COc1ccc(C2Oc3cccc(OC)c3-c3ccc4c(c32)C(C)=CC(C)(C)N4)cc1 (stereo not drawn)
Order each entry by recorded Ki, climbing from the minimum. // ordering of labels required in reply
2, 4, 1, 3
